B1: glmS ribozyme (parent)
chain: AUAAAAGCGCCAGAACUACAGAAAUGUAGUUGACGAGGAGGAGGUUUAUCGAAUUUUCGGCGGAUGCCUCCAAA

variants of: B1; test: kcat; higher = faster cleavage; RNA array; conditions: with glucosamine-6-phosphate
Variants at the floor of the assay were thinned out.
Listed below: kcat values for each entry.
recorded metric: kcat (s⁻¹)

{"variant": "C11U G38C", "recorded metric": "kcat", "u": "s⁻¹", "operator symbol": "<", "measured result": "1e-05"}
{"variant": "C67G U69G", "recorded metric": "kcat", "u": "s⁻¹", "operator symbol": "<", "measured result": "1e-05"}
{"variant": "G41C U54G", "recorded metric": "kcat", "u": "s⁻¹", "operator symbol": "=", "measured result": 0.000435}
{"variant": "G29A U47C", "recorded metric": "kcat", "u": "s⁻¹", "operator symbol": "=", "measured result": 0.000269}
{"variant": "A15U U65A", "recorded metric": "kcat", "u": "s⁻¹", "operator symbol": "=", "measured result": 0.000377}
{"variant": "A15G G37U", "recorded metric": "kcat", "u": "s⁻¹", "operator symbol": "=", "measured result": "1.02e-05"}
{"variant": "G44U C70U", "recorded metric": "kcat", "u": "s⁻¹", "operator symbol": "=", "measured result": "3.72e-05"}
{"variant": "G38U U47G", "recorded metric": "kcat", "u": "s⁻¹", "operator symbol": "<", "measured result": "1e-05"}
{"variant": "A6G A12C", "recorded metric": "kcat", "u": "s⁻¹", "operator symbol": "=", "measured result": 0.000313}
{"variant": "C8A G37U C70A", "recorded metric": "kcat", "u": "s⁻¹", "operator symbol": "=", "measured result": 0.00017}
{"variant": "A14G G43U", "recorded metric": "kcat", "u": "s⁻¹", "operator symbol": "=", "measured result": 0.000159}
{"variant": "C8U C67A", "recorded metric": "kcat", "u": "s⁻¹", "operator symbol": "<", "measured result": "1e-05"}
{"variant": "A12G G29U C67G", "recorded metric": "kcat", "u": "s⁻¹", "operator symbol": "=", "measured result": "7.88e-05"}
{"variant": "U56G G59A", "recorded metric": "kcat", "u": "s⁻¹", "operator symbol": "=", "measured result": "5.14e-05"}
{"variant": "C11A U57G", "recorded metric": "kcat", "u": "s⁻¹", "operator symbol": "<", "measured result": "1e-05"}
{"variant": "G60A G63C", "recorded metric": "kcat", "u": "s⁻¹", "operator symbol": "<", "measured result": "1e-05"}
{"variant": "C11U G32U", "recorded metric": "kcat", "u": "s⁻¹", "operator symbol": "=", "measured result": 0.000176}
{"variant": "G13U U65G", "recorded metric": "kcat", "u": "s⁻¹", "operator symbol": "=", "measured result": 0.000372}
{"variant": "U55G G60A", "recorded metric": "kcat", "u": "s⁻¹", "operator symbol": "=", "measured result": "2.4e-05"}
{"variant": "G59C C70G", "recorded metric": "kcat", "u": "s⁻¹", "operator symbol": "=", "measured result": "1.6e-05"}
{"variant": "G59A C67U", "recorded metric": "kcat", "u": "s⁻¹", "operator symbol": "=", "measured result": "4.36e-05"}
{"variant": "G13C A14U", "recorded metric": "kcat", "u": "s⁻¹", "operator symbol": "=", "measured result": 0.000311}
{"variant": "C50A G66C C67U", "recorded metric": "kcat", "u": "s⁻¹", "operator symbol": "=", "measured result": "1.02e-05"}
{"variant": "G9A A48G G51A G63A", "recorded metric": "kcat", "u": "s⁻¹", "operator symbol": "=", "measured result": "1.15e-05"}
{"variant": "C16A U55G", "recorded metric": "kcat", "u": "s⁻¹", "operator symbol": "=", "measured result": 0.00294}
{"variant": "G38C C58G C70U", "recorded metric": "kcat", "u": "s⁻¹", "operator symbol": "<", "measured result": "1e-05"}
{"variant": "G59A C71U", "recorded metric": "kcat", "u": "s⁻¹", "operator symbol": "=", "measured result": "6.15e-05"}
